These data points were gathered from ChEMBL document CHEMBL1146991.

Test: Solubility in citrate buffer at pH 4
Format: physicochemical
readout.kind: solubility (mg/mL)
// units = mg/mL; emit number, no label

Which solubility value is on record for CNC(=O)[C@H]1O[C@@H](n2cnc3c(NCc4cc(Cl)ccc4OCC(=O)N4CCNCC4)ncnc32)[C@H](O)[C@@H]1N ?
50

---

Molecular target: Adenosine receptor A3 (Homo sapiens)
Sequence (P0DMS8 whole entry): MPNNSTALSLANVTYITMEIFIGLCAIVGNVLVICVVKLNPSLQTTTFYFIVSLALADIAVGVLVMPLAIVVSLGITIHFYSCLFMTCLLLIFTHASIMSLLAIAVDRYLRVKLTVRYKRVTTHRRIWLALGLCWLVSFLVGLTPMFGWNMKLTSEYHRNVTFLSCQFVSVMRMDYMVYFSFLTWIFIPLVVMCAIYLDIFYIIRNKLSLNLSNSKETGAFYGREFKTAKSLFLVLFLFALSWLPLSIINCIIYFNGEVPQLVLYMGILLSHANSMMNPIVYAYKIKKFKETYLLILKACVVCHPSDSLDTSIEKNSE
readout.kind: Ki (nM)
// units = nM; emit number, no label

Look over these answered cases.
>  <record.smiles>
CNC(=O)[C@H]1O[C@@H](n2cnc3c(NC)ncnc32)C[C@@H]1O

>  <experimental.target>
Adenosine receptor A3 (Homo sapiens)

>  <Ki, nM>
87

$$$$
>  <record.smiles>
CNC(=O)[C@H]1O[C@@H](n2cnc3c(NCc4cc(Cl)ccc4OCC(=O)N4CCOCC4)ncnc32)[C@H](O)[C@@H]1N

>  <experimental.target>
Adenosine receptor A3 (Homo sapiens)

>  <Ki, nM>
20

$$$$
>  <record.smiles>
CNC(=O)[C@H]1O[C@@H](n2cnc3c(NCc4cc(Cl)ccc4OCc4ccccc4)ncnc32)[C@H](O)[C@@H]1N

>  <experimental.target>
Adenosine receptor A3 (Homo sapiens)

>  <Ki, nM>
16

$$$$

Which Ki value is on record for CNC(=O)[C@H]1O[C@@H](n2cnc3c(NCc4cc(Cl)ccc4OCC(=O)N4CCC(N(C)C)CC4)ncnc32)[C@H](O)[C@@H]1N ?
9.1

---

Molecular target: UniProt:P0DMS8
Assay: Inhibition of isoproterenol-induced increase of cAMP in HEK293 cell expressing human adenosine A3 receptor
readout.kind: pEC50
Hey, just a heads up that pEC50 is the negative log base 10 of the concentration in molar.

Which pEC50 value is on record for CNC(=O)[C@H]1O[C@@H](n2cnc3c(NCc4cc(Cl)ccc4OCC(=O)N4CCNCC4)ncnc32)[C@H](O)[C@@H]1N ?
8.09

---

Target: Adenosine receptors; A1 & A3 (Homo sapiens) (UniProt P30542+P0DMS8)
Sequence (P0DMS8 whole entry, looked up): as the sequence (P0DMS8 whole entry) above
Sequence (P30542 whole entry, looked up): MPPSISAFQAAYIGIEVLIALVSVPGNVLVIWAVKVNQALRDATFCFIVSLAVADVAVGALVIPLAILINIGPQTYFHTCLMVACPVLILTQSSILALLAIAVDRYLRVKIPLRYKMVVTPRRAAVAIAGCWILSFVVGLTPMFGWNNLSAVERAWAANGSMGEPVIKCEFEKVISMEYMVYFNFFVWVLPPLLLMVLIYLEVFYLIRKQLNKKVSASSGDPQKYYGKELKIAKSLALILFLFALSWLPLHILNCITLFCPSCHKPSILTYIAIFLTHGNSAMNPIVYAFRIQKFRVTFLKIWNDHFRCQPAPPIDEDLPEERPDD
Experiment: Selectivity for human adenosine A3 receptor over human adenosine A1 receptor
Assay type: protein assay
readout.kind: Selectivity ratio
Number only, please.

Look over these answered cases.
>  <record.smiles>
CNC(=O)[C@H]1O[C@@H](n2cnc3c(NCc4cc(Cl)ccc4OCC(=O)N4CCOCC4)ncnc32)[C@H](O)[C@@H]1N

>  <Selectivity ratio>
700

$$$$
>  <record.smiles>
CNC(=O)[C@H]1O[C@@H](n2cnc3c(NCc4cc(Cl)ccc4OCC(=O)N4CCNCC4)ncnc32)[C@H](O)[C@@H]1N

>  <Selectivity ratio>
445

$$$$
>  <record.smiles>
CNC(=O)[C@@H]1C[C@@H](O)[C@H](n2cnc3c(NC)ncnc32)O1

>  <Selectivity ratio>
6

$$$$
>  <record.smiles>
CNC(=O)[C@H]1O[C@@H](n2cnc3c(NCc4cc(Cl)ccc4OC)ncnc32)[C@H](O)[C@@H]1N

>  <Selectivity ratio>
317

$$$$

Which Selectivity ratio value is on record for CNC(=O)[C@H]1O[C@@H](n2cnc3c(NCc4cc(Cl)cc(Cl)c4)ncnc32)[C@H](O)[C@@H]1O ?
9.4

Queued: CNC(=O)[C@H]1O[C@@H](n2cnc3c(NCc4cc(Cl)ccc4OCC(=O)N4CCCCC4)ncnc32)[C@H](O)[C@@H]1N
720

Queued: CNC(=O)[C@H]1O[C@@H](n2cnc3c(NCc4cc(Cl)cc(Cl)c4)ncnc32)[C@H](O)[C@@H]1N
148

Queued: CNC(=O)[C@H]1O[C@@H](n2cnc3c(NCc4cc(Cl)ccc4OCC(=O)O)ncnc32)[C@H](O)[C@@H]1N
222

---

Target: Adenosine receptors; A1 & A3 (Homo sapiens) (UniProt P30542+P0DMS8)
Assay: Selectivity for human adenosine A3 receptor over human adenosine A1 receptor
Assay type: protein assay
Below is a list of entries, each paired with its recorded Selectivity ratio value.
Number only, please.

>  <record.smiles>
CNC(=O)[C@H]1O[C@@H](n2cnc3c(NC)ncnc32)[C@H](O)[C@@H]1O

>  <Selectivity ratio>
13

$$$$

Which Selectivity ratio value is on record for CNC(=O)[C@H]1O[C@@H](n2cnc3c(NC)ncnc32)[C@H](O)[C@@H]1N ?
194

---

Target: Adenosine receptors; A1 & A3 (Homo sapiens) (UniProt P30542+P0DMS8)
Test: Selectivity for human adenosine A3 receptor over human adenosine A1 receptor
Assay type: protein assay
Threshold 300: Selectivity ratio strictly smaller gives Y, otherwise N.

Use the examples below as a reference point.
>  <record.smiles>
CNC(=O)[C@H]1O[C@@H](n2cnc3c(NCc4cc(Cl)ccc4OCc4ccccc4)ncnc32)[C@H](O)[C@@H]1N

>  <group>
N

$$$$
>  <record.smiles>
CNC(=O)[C@H]1O[C@@H](n2cnc3c(NCc4cc(Cl)ccc4OCC(=O)N4CCC(N(C)C)CC4)ncnc32)[C@H](O)[C@@H]1N

>  <group>
N

$$$$
>  <record.smiles>
CNC(=O)[C@H]1O[C@@H](n2cnc3c(NCc4cc(OC)ccc4OC)ncnc32)[C@H](O)[C@@H]1O

>  <group>
Y

$$$$
>  <record.smiles>
CNC(=O)[C@H]1O[C@@H](n2cnc3c(NCc4cc(Cl)ccc4OCC(N)=O)ncnc32)[C@H](O)[C@@H]1N

>  <group>
N

$$$$

Here is the next item to consider.
Selectivity ratio under 300? Item: CNC(=O)[C@H]1O[C@@H](n2cnc3c(NC)ncnc32)C[C@@H]1O
Y
